Overview of recorded photocatalytic hydrogen evolution rate for various compounds
assay: photocatalytic hydrogen evolution rate (per 5 mg catalyst); higher = more photocatalytic H2 evolution; extreme values may be limits of the assay;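 also: aromatic molecules in triethylamine/methanol/water with Pt photoreduced in situ, irradiated 3 h under a 1 sun AM 1.5G solar simulator (350–1000 nm), H2 quantified by headspace gas chromatography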;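 also: listed molecule itself used as the photocatalyst at 5 mg per vial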
reported.conditions: catalyst mass (mg): 5; Pt cocatalyst (wt%): 3; sacrificial medium: triethylamine/methanol/water 1:1:1
The answer is to be given in µmol/h; state only the numeric part.

Recorded photocatalytic hydrogen evolution rate, per entry:
[ask] Item CC(Oc1ccc(Br)cc1Br)C(=O)NN (centres undefined) : provide photocatalytic hydrogen evolution rate
[reply] 0

[ask] Item Oc1ccc2cc(Br)ccc2c1-c1c(O)ccc2cc(Br)ccc12 : provide photocatalytic hydrogen evolution rate
[reply] 0

[ask] Item Cc1ccc(Nc2ccc(C)cc2)cc1 : provide photocatalytic hydrogen evolution rate
[reply] 0.074

More entries:
[ask] Item CCN1C(=O)C(=O)c2cc(Br)cc(Br)c21 : provide photocatalytic hydrogen evolution rate
[reply] 0.105

[ask] Item N#Cc1cc(Br)ccc1Br : provide photocatalytic hydrogen evolution rate
[reply] 0

[ask] Item C=Cc1ccccc1 : provide photocatalytic hydrogen evolution rate
[reply] 0

[ask] Item O=Cc1ccc(O)c(O)c1O : provide photocatalytic hydrogen evolution rate
[reply] 0

[ask] Item C(C#Cc1ccccc1)#Cc1ccccc1 : provide photocatalytic hydrogen evolution rate
[reply] 0

====

assay: photocatalytic hydrogen evolution rate (per 5 mg catalyst); higher = more photocatalytic H2 evolution; extreme values may be limits of the assay
reported.conditions: catalyst mass (mg): 5; Pt cocatalyst (wt%): 3; sacrificial medium: triethylamine/methanol/water 1:1:1
reported.property: photocatalytic hydrogen evolution rate (µmol/h)
The answer is to be given in µmol/h; state only the numeric part.

Recorded photocatalytic hydrogen evolution rate, per entry:
[ask] Item N#Cc1cc(N)ccn1 : provide photocatalytic hydrogen evolution rate
[reply] 0

[ask] Item Brc1ccc(-c2ccc(-c3ccc(Br)s3)s2)s1 : provide photocatalytic hydrogen evolution rate
[reply] 0

More entries:
[ask] Item N#Cc1ccc(N)cc1 : provide photocatalytic hydrogen evolution rate
[reply] 0

[ask] Item O=Cc1ccc(-n2ccnc2)cc1 : provide photocatalytic hydrogen evolution rate
[reply] 1.5

[ask] Item O=S1(=O)c2ccccc2-c2ccccc21 : provide photocatalytic hydrogen evolution rate
[reply] 0.222

[ask] Item C#Cc1ccc(Br)cc1 : provide photocatalytic hydrogen evolution rate
[reply] 0

[ask] Item O=Cc1ccc(-c2ccc(F)cc2)cc1 : provide photocatalytic hydrogen evolution rate
[reply] 5.25

====

assay: photocatalytic hydrogen evolution rate (per 5 mg catalyst); higher = more photocatalytic H2 evolution; extreme values may be limits of the assay
reported.conditions: catalyst mass (mg): 5; Pt cocatalyst (wt%): 3; sacrificial medium: triethylamine/methanol/water 1:1:1
Overview of recorded photocatalytic hydrogen evolution rate for various compounds
A complete answer gives the number followed by the unit.

[ask] Item Brc1ccc(Br)c2nsnc12 : provide photocatalytic hydrogen evolution rate
[reply] 1.29 µmol/h

More entries:
[ask] Item Cc1ccc(C)c(N=Nc2cc(C)c(N=Nc3c(O)ccc4ccccc34)cc2C)c1 : provide photocatalytic hydrogen evolution rate
[reply] 0 µmol/h

[ask] Item O=Cc1ccc(C=O)cc1 : provide photocatalytic hydrogen evolution rate
[reply] 0.0145 µmol/h

[ask] Item O=Cc1ccc(-c2ccc(C=O)s2)s1 : provide photocatalytic hydrogen evolution rate
[reply] 1.18 µmol/h

[ask] Item CCc1ccc(C(=O)CC#N)cc1 : provide photocatalytic hydrogen evolution rate
[reply] 0.0661 µmol/h

[ask] Item N#Cc1ccc(-c2ccc(C#N)c(O)c2)cc1 : provide photocatalytic hydrogen evolution rate
[reply] 8.34 µmol/h

====

assay: photocatalytic hydrogen evolution rate (per 5 mg catalyst); higher = more photocatalytic H2 evolution; extreme values may be limits of the assay
reported.conditions: catalyst mass (mg): 5; Pt cocatalyst (wt%): 3; sacrificial medium: triethylamine/methanol/water 1:1:1
reported.property: photocatalytic hydrogen evolution rate (µmol/h)
The answer is to be given in µmol/h; state only the numeric part.

[ask] Item O=Cc1ccc(C(=O)O)cc1O : provide photocatalytic hydrogen evolution rate
[reply] 8.19

[ask] Item N#Cc1ccc(C=O)nc1 : provide photocatalytic hydrogen evolution rate
[reply] 0.139

[ask] Item CC(=O)c1c(O)cccc1O : provide photocatalytic hydrogen evolution rate
[reply] 0

[ask] Item CC(C)(C)c1cc(C=O)cc(C(C)(C)C)c1O : provide photocatalytic hydrogen evolution rate
[reply] 0

====

assay: photocatalytic hydrogen evolution rate (per 5 mg catalyst); higher = more photocatalytic H2 evolution; extreme values may be limits of the assay
reported.conditions: catalyst mass (mg): 5; Pt cocatalyst (wt%): 3; sacrificial medium: triethylamine/methanol/water 1:1:1
Overview of recorded photocatalytic hydrogen evolution rate for various compounds
The answer is to be given in µmol/h; state only the numeric part.

[ask] Item O=Cc1cc(O)ccc1O : provide photocatalytic hydrogen evolution rate
[reply] 0

[ask] Item Cc1cc(C#N)ccc1C#N : provide photocatalytic hydrogen evolution rate
[reply] 0

[ask] Item O=C(O)c1ccc(N=Nc2ccccc2)cc1 : provide photocatalytic hydrogen evolution rate
[reply] 0

[ask] Item N#Cc1ccc(F)c(N)c1 : provide photocatalytic hydrogen evolution rate
[reply] 0

[ask] Item Clc1ccc2ccc(Cl)nc2n1 : provide photocatalytic hydrogen evolution rate
[reply] 0.122

[ask] Item O=Cc1cc(O)c(O)cc1O : provide photocatalytic hydrogen evolution rate
[reply] 0

[ask] Item Oc1c(Br)cc(Br)c(O)c1Br : provide photocatalytic hydrogen evolution rate
[reply] 0

Switching to the query record.
[ask] Item Brc1ncc(Br)n2ccnc12 : provide photocatalytic hydrogen evolution rate
[reply] 0.00675

====

assay: photocatalytic hydrogen evolution rate (per 5 mg catalyst); higher = more photocatalytic H2 evolution; extreme values may be limits of the assay
reported.conditions: catalyst mass (mg): 5; Pt cocatalyst (wt%): 3; sacrificial medium: triethylamine/methanol/water 1:1:1
Returns one of Condition met or Condition not met; Condition met when photocatalytic hydrogen evolution rate is >= 0.08 µmol/h.

Answered examples (5):
[ask] Determine whether this molecule has photocatalytic hydrogen evolution rate no lower than 0.08 µmol/h: O=C1c2c(O)cccc2Cc2cccc(O)c21
[reply] Condition not met

[ask] Determine whether this molecule has photocatalytic hydrogen evolution rate no lower than 0.08 µmol/h: N#Cc1cc(F)c(F)cc1F
[reply] Condition not met

[ask] Determine whether this molecule has photocatalytic hydrogen evolution rate no lower than 0.08 µmol/h: O=C1OC2(c3cc(Cl)c(O)cc3Oc3cc(O)c(Cl)cc32)c2ccccc21
[reply] Condition met

[ask] Determine whether this molecule has photocatalytic hydrogen evolution rate no lower than 0.08 µmol/h: O=C1OC(=O)c2ccc3c4c(ccc1c24)C(=O)OC3=O
[reply] Condition met

[ask] Determine whether this molecule has photocatalytic hydrogen evolution rate no lower than 0.08 µmol/h: Cc1cc(C#N)ccc1N
[reply] Condition not met

More entries:
[ask] Determine whether this molecule has photocatalytic hydrogen evolution rate no lower than 0.08 µmol/h: O=Cc1ccc2nccnc2c1
[reply] Condition not met

[ask] Determine whether this molecule has photocatalytic hydrogen evolution rate no lower than 0.08 µmol/h: c1ccc(-c2ccc(-c3ccc(-c4ccccc4)cc3)cc2)cc1
[reply] Condition not met

[ask] Determine whether this molecule has photocatalytic hydrogen evolution rate no lower than 0.08 µmol/h: O=Cc1cc(Br)cc(C=O)c1
[reply] Condition met

[ask] Determine whether this molecule has photocatalytic hydrogen evolution rate no lower than 0.08 µmol/h: Nc1cc(Br)c(Br)cc1N
[reply] Condition not met

[ask] Determine whether this molecule has photocatalytic hydrogen evolution rate no lower than 0.08 µmol/h: O=C(O)C(c1ccccc1)(c1ccccc1)c1ccccc1
[reply] Condition not met

====

assay: photocatalytic hydrogen evolution rate (per 5 mg catalyst); higher = more photocatalytic H2 evolution; extreme values may be limits of the assay
reported.conditions: catalyst mass (mg): 5; Pt cocatalyst (wt%): 3; sacrificial medium: triethylamine/methanol/water 1:1:1
reported.property: photocatalytic hydrogen evolution rate (µmol/h)
The answer is to be given in µmol/h; state only the numeric part.

[ask] Item N#Cc1cccc(Br)n1 : provide photocatalytic hydrogen evolution rate
[reply] 0

More entries:
[ask] Item CC1(C)OB(c2ccc(B3OC(C)(C)C(C)(C)O3)c3nsnc23)OC1(C)C : provide photocatalytic hydrogen evolution rate
[reply] 0

[ask] Item O=Cc1ccc(F)c(O)c1 : provide photocatalytic hydrogen evolution rate
[reply] 0.000356

[ask] Item Brc1ccccc1-c1ccccc1Br : provide photocatalytic hydrogen evolution rate
[reply] 0

[ask] Item N#Cc1cnc(N)c(C#N)c1 : provide photocatalytic hydrogen evolution rate
[reply] 0.468

[ask] Item Brc1c2c(c(Br)c3nsnc13)N=S=N2 : provide photocatalytic hydrogen evolution rate
[reply] 0

[ask] Item c1ccc(-c2ccccc2)cc1 : provide photocatalytic hydrogen evolution rate
[reply] 0

[ask] Item Brc1ccc(N(c2ccc(Br)cc2)c2ccc(Br)cc2)cc1 : provide photocatalytic hydrogen evolution rate
[reply] 0.922

[ask] Item Brc1ccc(C#Cc2ccc(Br)cc2)cc1 : provide photocatalytic hydrogen evolution rate
[reply] 0

====

assay: photocatalytic hydrogen evolution rate (per 5 mg catalyst); higher = more photocatalytic H2 evolution; extreme values may be limits of the assay
reported.conditions: catalyst mass (mg): 5; Pt cocatalyst (wt%): 3; sacrificial medium: triethylamine/methanol/water 1:1:1
reported.property: photocatalytic hydrogen evolution rate (µmol/h)
The answer is to be given in µmol/h; state only the numeric part.

Recorded photocatalytic hydrogen evolution rate, per entry:
[ask] Item O=Cc1cc(O)cc(Cl)c1 : provide photocatalytic hydrogen evolution rate
[reply] 0.000189

[ask] Item c1cncc(-c2nc(-c3cccnc3)nc(-c3cccnc3)n2)c1 : provide photocatalytic hydrogen evolution rate
[reply] 0.168

[ask] Item OB(O)c1cc(F)c(B(O)O)cc1F : provide photocatalytic hydrogen evolution rate
[reply] 0

[ask] Item O=Cc1ccc(B(O)O)cc1 : provide photocatalytic hydrogen evolution rate
[reply] 0.0401

[ask] Item O=Cc1cc(O)c(C=O)cc1O : provide photocatalytic hydrogen evolution rate
[reply] 0

More entries:
[ask] Item O=Cc1ccc(O)cc1O : provide photocatalytic hydrogen evolution rate
[reply] 0.896

[ask] Item Cc1cc(C=O)c(O)c(C=O)c1 : provide photocatalytic hydrogen evolution rate
[reply] 7.62
